tested on: PPARg:RXRa (NR concentration 180 nM, RXRa partner concentration 90 nM); test: PBM binding z-score (relative to random genomic background probes); higher = stronger binding; sequences stand for … in GC…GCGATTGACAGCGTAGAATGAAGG
Kindly return Condition met if reported PBM binding z-score is no lower than 3; return Condition not met if it is lower.

                         residue_codes                            assayed_system     classification
 0  CGTCCAAGGTCAAAGGTCAGTGATGAGATGACGG  PPARg:RXRa (NR concentration 180 nM, RXRa partner concentration 90 nM)      Condition met
 1  TCATATAGGTAAAAGGTGAAGGTCGGTGTGGTAA  PPARg:RXRa (NR concentration 180 nM, RXRa partner concentration 90 nM)      Condition met
 2  CAAACTAGGTCACCGGCAGGTCAAAGTCCGCATG  PPARg:RXRa (NR concentration 180 nM, RXRa partner concentration 90 nM)      Condition met
 3  GGAACGAGGGCAAATTGATAGCAGAGTTTGATGG  PPARg:RXRa (NR concentration 180 nM, RXRa partner concentration 90 nM)  Condition not met
 4  AGAATGAGGTTATACTTAGATCAGGGAAGAAAGT  PPARg:RXRa (NR concentration 180 nM, RXRa partner concentration 90 nM)  Condition not met
 5  ATCTCTAGGTAAAGTTCGGTGAAAGATCGATAGA  PPARg:RXRa (NR concentration 180 nM, RXRa partner concentration 90 nM)  Condition not met
 6  CGGCAAAGTTCAAGGTAACGTAACAGAAAGCAGC  PPARg:RXRa (NR concentration 180 nM, RXRa partner concentration 90 nM)      Condition met
 7  ATCTCTAGGTAACAAGTTCAGTCAAAGAGAGGAC  PPARg:RXRa (NR concentration 180 nM, RXRa partner concentration 90 nM)  Condition not met
 8  TCATATAGGTAAAGGTGAAATTCGAACGATATGA  PPARg:RXRa (NR concentration 180 nM, RXRa partner concentration 90 nM)      Condition met
 9  TCTGCTAGGTCAACGATGGTCAGCTATTCTGCTA  PPARg:RXRa (NR concentration 180 nM, RXRa partner concentration 90 nM)  Condition not met
10  GGAACGAGGGCAGGTTGATAGCAGAGTTTGATGG  PPARg:RXRa (NR concentration 180 nM, RXRa partner concentration 90 nM)  Condition not met
11  ATATGTAGTTTAAGGGTCATTCAGGTTGGTTCGC  PPARg:RXRa (NR concentration 180 nM, RXRa partner concentration 90 nM)      Condition met
12  CGAACTAGGTCATTGACAGGACCGTGAATAGTAA  PPARg:RXRa (NR concentration 180 nM, RXRa partner concentration 90 nM)      Condition met
13  TCTTGTAGATCAATAGAGGTTAATAAAGTGCGCT  PPARg:RXRa (NR concentration 180 nM, RXRa partner concentration 90 nM)  Condition not met
14  CCTTACGGGTCAAGGTTACAGCACGGGTGGTACG  PPARg:RXRa (NR concentration 180 nM, RXRa partner concentration 90 nM)      Condition met
15  AGAATGAGCTTACCAAAGATCAGGGAAACGCTTG  PPARg:RXRa (NR concentration 180 nM, RXRa partner concentration 90 nM)  Condition not met
16  ATACCAAGGTGATCGTGAGGTTGTTGATACTAAC  PPARg:RXRa (NR concentration 180 nM, RXRa partner concentration 90 nM)  Condition not met
17  GCTTACGGGTCAAAGGTTATCGCATGAATAGAAT  PPARg:RXRa (NR concentration 180 nM, RXRa partner concentration 90 nM)      Condition met
18  TCATATAGGTAAAAGGTGAAAGCCGGTGTGGTAA  PPARg:RXRa (NR concentration 180 nM, RXRa partner concentration 90 nM)      Condition met
19  TCATATAGGCAAATGCTAGGTGAAAGTCCGATCT  PPARg:RXRa (NR concentration 180 nM, RXRa partner concentration 90 nM)  Condition not met
20  GCTTACGGGACAAAGGTTATAGCATGAATAGAAT  PPARg:RXRa (NR concentration 180 nM, RXRa partner concentration 90 nM)      Condition met
21  GGAACGAGGGCATTCGAGCTGATAGCATGGCGAT  PPARg:RXRa (NR concentration 180 nM, RXRa partner concentration 90 nM)  Condition not met
22  ATCACTAGGTAAAGATAGTTCAGTGAATGCAAAT  PPARg:RXRa (NR concentration 180 nM, RXRa partner concentration 90 nM)  Condition not met
23  TTAGACAGGTGAAGGTAACTCAGGTACGCAGTCG  PPARg:RXRa (NR concentration 180 nM, RXRa partner concentration 90 nM)  Condition not met
24  GCATATAGGTAATACAAGGTGAAAGCCCGATTGT  PPARg:RXRa (NR concentration 180 nM, RXRa partner concentration 90 nM)  Condition not met
25  TCATATGGGTAAACAGGTGAAAGTCCGTAAGTTA  PPARg:RXRa (NR concentration 180 nM, RXRa partner concentration 90 nM)  Condition not met
26  CTACCAAGGGGAACAAGGTCGTTGATTACTATTC  PPARg:RXRa (NR concentration 180 nM, RXRa partner concentration 90 nM)  Condition not met
27  TCTTGTAGATCAACAGGACGTTAAGAAAGATCGA  PPARg:RXRa (NR concentration 180 nM, RXRa partner concentration 90 nM)  Condition not met
28  GCTTGTAGATCAAGGTTAAGAATGACTAAGCTAA  PPARg:RXRa (NR concentration 180 nM, RXRa partner concentration 90 nM)  Condition not met
29  AGTCAAAGTTCCTCTAGGTAACGTAAGATATGCT  PPARg:RXRa (NR concentration 180 nM, RXRa partner concentration 90 nM)  Condition not met
30  CCTCCGAGGACAACAGGAGGTCAGAGCTGCCAGA  PPARg:RXRa (NR concentration 180 nM, RXRa partner concentration 90 nM)  Condition not met
31  TAGCCTAGGTAATGGGCCAGTATACCACGCGAAC  PPARg:RXRa (NR concentration 180 nM, RXRa partner concentration 90 nM)  Condition not met
32  ATCTCTAGCTAAGACTCAGTTCAGTGAAGAACGC  PPARg:RXRa (NR concentration 180 nM, RXRa partner concentration 90 nM)  Condition not met
33  CCTGCTAGGTCAATGGTCAGGTAAAGCAGCTCGC  PPARg:RXRa (NR concentration 180 nM, RXRa partner concentration 90 nM)      Condition met
34  TCTATTTGTTGATTAGGGCAACCGAAACAGCGGA  PPARg:RXRa (NR concentration 180 nM, RXRa partner concentration 90 nM)  Condition not met
35  ACTATTAGTTGGGACGAGGGCAACCGATAGGTTG  PPARg:RXRa (NR concentration 180 nM, RXRa partner concentration 90 nM)  Condition not met
36  CCTAGGAGGCCAGGGTCACTCAAGCATTTCGCTT  PPARg:RXRa (NR concentration 180 nM, RXRa partner concentration 90 nM)  Condition not met
37  CGTTCAAGGTCAGCAGGTCAGTGAAAGCGACGTG  PPARg:RXRa (NR concentration 180 nM, RXRa partner concentration 90 nM)      Condition met
38  ATATGTAGGTTACATCCGGGTCATGCAGGCTATG  PPARg:RXRa (NR concentration 180 nM, RXRa partner concentration 90 nM)      Condition met
39  CATACAGGGTCAGCTAGGCCGGAGTAGGGACGGC  PPARg:RXRa (NR concentration 180 nM, RXRa partner concentration 90 nM)  Condition not met
40  CGAGACAGGTGAAAGGTAACTCAGTCTGGTACGC  PPARg:RXRa (NR concentration 180 nM, RXRa partner concentration 90 nM)      Condition met
41  CGTCAAAGTTCAACTAAGGTATCGTAAAGCACGC  PPARg:RXRa (NR concentration 180 nM, RXRa partner concentration 90 nM)      Condition met
42  CGAACTAGGTCATTGACAGGACAGTGCATAGTAA  PPARg:RXRa (NR concentration 180 nM, RXRa partner concentration 90 nM)      Condition met
43  TAGCCTAGGTCATTGAGGGGCCAGTATAGAAAGC  PPARg:RXRa (NR concentration 180 nM, RXRa partner concentration 90 nM)  Condition not met
44  CCTTACGGATCACTCCAGGTTATAGCATCGGAGT  PPARg:RXRa (NR concentration 180 nM, RXRa partner concentration 90 nM)  Condition not met
45  ATCGAAAGGTCGACGAGGTGAGTAGACACCGTTT  PPARg:RXRa (NR concentration 180 nM, RXRa partner concentration 90 nM)      Condition met
46  ATCTCTAGGTAACCAACTTCAGTGAATGCCGAAC  PPARg:RXRa (NR concentration 180 nM, RXRa partner concentration 90 nM)  Condition not met
47  TCTCGCAGGACACGAAGGTCAGAGCTTTCCAGAG  PPARg:RXRa (NR concentration 180 nM, RXRa partner concentration 90 nM)  Condition not met
